Tested on: alle getesteten Pathogene
Assay type: cell-based
condition_details: 5-50 µg/mL
observable: Aktivität im Wachstums- und Keimungshemmungstest gegen die getesteten Pathogene

- smi: "COc1cc(OC)c([Se]c2cc(OC)c(OC)cc2OC)cc1OC"
  study_system: "alle getesteten Pathogene"
  result: "fungizider Effekt"
- smi: "COc1cc(C)cc([Se]c2cc(C)cc(OC)c2O)c1O"
  study_system: "alle getesteten Pathogene"
  result: "fungizider Effekt"

====

Test system: M. grisea CM
assay_name: microbe, parasite or virus in culture
Type: cell-based, Magnaporthe grisea
condition_details: Pyricularia grisea, 24 h, read-out: Aktivität gegenüber M. grisea CM
For each entry below, report its inhibition of growth at 10 µg/mL value.

Quick check: inhibition of growth at 10 µg/mL of Cc1cc(C)c(O)c([Se]c2c(C)c(C)cc(C)c2O)c1C ?
0 to 25%

Subsequent entry: CC(C)(C)c1cc([Se]c2cc(C(C)(C)C)cc(C(C)(C)C)c2O)c(O)c(C(C)(C)C)c1
0 to 25%

Subsequent entry: Cc1cc(C)c(O)c([Se]c2cc(C)cc(C)c2O)c1 [Verbindung 12, Bis(3,5-dimethyl-2-hydroxyphenyl)selen]
> 75%

Subsequent entry: Cc1c(Cl)cc(C(C)C)c(O)c1[Se]c1c(C)c(Cl)cc(C(C)C)c1O
> 75%

====

For each entry below, report its inhibition of growth at 10 µg/mL value.
Test system: M. grisea CM
assay_name: microbe, parasite or virus in culture
Type: cell-based, Magnaporthe grisea
condition_details: Pyricularia grisea, 24 h, read-out: Aktivität gegenüber M. grisea CM

Quick check: inhibition of growth at 10 µg/mL of COc1cc(C)cc([Se]c2cc(C)cc(OC)c2O)c1O ?
> 75%

Subsequent entry: Oc1c(Cl)cc(F)cc1[Se]c1cc(F)cc(Cl)c1O
> 75%

Subsequent entry: Cc1cc(C(C)(C)C)cc([Se]c2cc(C(C)(C)C)cc(C)c2O)c1O
> 75%

Subsequent entry: CCc1cc([Se]c2cc(CC)cc(C(C)(C)C)c2O)c(O)c(C(C)(C)C)c1
0 to 25%

Subsequent entry: COc1cc(OC)c([Se]c2cc(OC)c(OC)cc2OC)cc1OC
> 75%

Subsequent entry: Cc1cc(C(C)C)c(O)c([Se]c2c(C)c(C)cc(C(C)C)c2O)c1C
0 to 25%

Subsequent entry: Cc1cc(Cl)cc([Se]c2cc(Cl)cc(C)c2O)c1O
> 75%

Subsequent entry: Cc1cc([Se]c2cc(C)c(O)c(C)c2)cc(C)c1O [Verbindung 19, Bis(3,5-dimethyl-4-hydroxyphenyl)selen]
> 75%

Subsequent entry: CCC(C)(C)c1cc([Se]c2cc(C(C)(C)CC)cc(C(C)(C)CC)c2O)c(O)c(C(C)(C)CC)c1
0 to 25%

Subsequent entry: Cc1cc(Br)c(O)c([Se]c2cc(C)cc(Br)c2O)c1
> 75%

====

Test system: Botrytis cinerea
assay_name: microbe, parasite or virus in culture
Format: cell-based
condition_details: Botrytis cinerea, 24 h; 50µg/mL; read-out: Aktivität gegenüber B. cinerea
For each entry below, report its inhibition of growth at 50 µg/mL value.

Quick check: inhibition of growth at 50 µg/mL of COc1cc(OC)c([Se]c2cc(OC)c(OC)cc2OC)cc1OC ?
0 to 25%

Subsequent entry: Cc1cc(C)c(O)c([Se]c2c(C)c(C)cc(C)c2O)c1C
0 to 25%

Subsequent entry: Cc1cc(C(C)(C)C)cc([Se]c2cc(C(C)(C)C)cc(C)c2O)c1O
0 to 25%

Reference for the values: patent EP3262942A1
